- assay target: HLA-B*46:01
- assay overview: IEDB peptide-MHC binding, purified MHC/direct/fluorescence; filed as Kd, often an IC50 or EC50 that approximates it; bounds were set here for any values at or beyond the usual limits of such assays
- test settings: source organism: Mycobacterium tuberculosis
reported endpoint: Kd

Req: Entry under review: `RPKPDYSAM` . Reported Kd?
Resp: ≥ 20 µM

Req: Please give the result for `RPRVAQLTF` too.
Resp: ≥ 20 µM

Req: Please give the result for `KPKLARGEL` too.
Resp: ≥ 20 µM

----------
- assay target: HLA-A*69:01
- assay overview: IEDB peptide-MHC binding, purified MHC/competitive/fluorescence; filed as Kd, often an IC50 or EC50 that approximates it; bounds were set here for any values at or beyond the usual limits of such assays
- test settings: source organism: Human immunodeficiency virus 1
reported endpoint: Kd (µM)
Give the number; µM is assumed, so skip it.

Req: Entry under review: `ALVEMGHHV` . Reported Kd?
Resp: 2.01

----------
Would you kindly list pKd for each of these sequences?
- assay target: HLA-A*69:01
- assay overview: IEDB peptide-MHC binding, purified MHC/direct/fluorescence; filed as Kd, often an IC50 or EC50 that approximates it; bounds were set here for any values at or beyond the usual limits of such assays
- test settings: source organism: Vibrio parahaemolyticus
pKd: −log10 of the molar value.

Req: Give HLA-A*69:01 pKd for `ALSMGINTV`
Resp: 5.70

Req: Please give the result for `EEDLPVTWR` too.
Resp: ≤ 4.70

Req: Please give the result for `GRNSRFPDK` too.
Resp: ≤ 4.70

----------
- assay target: HLA-A*02:03
- assay overview: IEDB peptide-MHC binding, purified MHC/competitive/fluorescence; filed as Kd, often an IC50 or EC50 that approximates it; bounds were set here for any values at or beyond the usual limits of such assays
- test settings: source organism: Cryptosporidium parvum Iowa II
reported endpoint: Kd

Req: Entry under review: `SGLPGIFIV` . Reported Kd?
Resp: ≥ 20 µM

----------
- assay target: HLA-B*51:01
- assay overview: IEDB peptide-MHC binding, purified MHC/competitive/radioactivity; filed as Kd, often an IC50 or EC50 that approximates it; bounds were set here for any values at or beyond the usual limits of such assays
- test settings: source organism: Mammarenavirus juninense
reported endpoint: pKd
Here pKd is given on a logarithmic scale as minus log10 of the concentration in mol/L.

Req: Entry under review: `TPDNFSSLI` . Reported pKd?
Resp: 5.77

----------
- assay target: HLA-B*51:01
- assay overview: IEDB peptide-MHC binding, purified MHC/competitive/fluorescence; filed as Kd, often an IC50 or EC50 that approximates it; bounds were set here for any values at or beyond the usual limits of such assays
- test settings: source organism: Cryptosporidium parvum Iowa II
reported endpoint: Kd

Req: Entry under review: `TVFRNQNRV` . Reported Kd?
Resp: ≥ 5 µM

----------
- assay target: HLA-B*15:01
- assay overview: IEDB peptide-MHC binding, purified MHC/competitive/fluorescence; filed as Kd, often an IC50 or EC50 that approximates it; bounds were set here for any values at or beyond the usual limits of such assays
- test settings: source organism: Mycobacterium tuberculosis C
reported endpoint: Kd

Req: Entry under review: `RPKPDYSAM` . Reported Kd?
Resp: ≥ 20 µM

----------
- assay target: HLA-B*58:01
- assay overview: IEDB peptide-MHC binding, purified MHC/competitive/radioactivity; filed as Kd, often an IC50 or EC50 that approximates it; bounds were set here for any values at or beyond the usual limits of such assays
- test settings: source organism: Dengue virus 1 Brazil/97-11/1997
reported endpoint: pKd
Here pKd is given on a logarithmic scale as minus log10 of the concentration in mol/L.

Req: Entry under review: `CTSQILLMRT` . Reported pKd?
Resp: 4.77

----------
- assay target: HLA-B*18:01
- assay overview: IEDB peptide-MHC binding, purified MHC/competitive/fluorescence; filed as Kd, often an IC50 or EC50 that approximates it; bounds were set here for any values at or beyond the usual limits of such assays
- test settings: source organism: Vaccinia virus WR
reported endpoint: Kd

Req: Entry under review: `FVHTLLKTY` . Reported Kd?
Resp: ≥ 20 µM

----------
- assay target: HLA-A*24:03
- assay overview: IEDB peptide-MHC binding, purified MHC/direct/fluorescence; filed as Kd, often an IC50 or EC50 that approximates it; bounds were set here for any values at or beyond the usual limits of such assays
- test settings: source organism: Pseudomonas aeruginosa
reported endpoint: pKd
Here pKd is given on a logarithmic scale as minus log10 of the concentration in mol/L.

Req: Entry under review: `AYGSRFHEW` . Reported pKd?
Resp: 8.74

----------
- assay target: HLA-C*07:02
- assay overview: IEDB peptide-MHC binding, purified MHC/direct/fluorescence; filed as Kd, often an IC50 or EC50 that approximates it; bounds were set here for any values at or beyond the usual limits of such assays
- test settings: source organism: Homo sapiens
reported endpoint: pKd
Here pKd is given on a logarithmic scale as minus log10 of the concentration in mol/L.

Req: Entry under review: `FYYNAFHWAI` . Reported pKd?
Resp: 6.74

----------
- assay target: HLA-A*31:01
- assay overview: IEDB peptide-MHC binding, purified MHC/direct/fluorescence; filed as Kd, often an IC50 or EC50 that approximates it; bounds were set here for any values at or beyond the usual limits of such assays
- test settings: source organism: Influenza A virus (A/chicken/Hunan/fg/2004(H5N1))
reported endpoint: Kd

Req: Give HLA-A*31:01 Kd for `DTVNRTHQY`
Resp: ≥ 20 µM

----------
- assay target: HLA-A*02:03
- assay overview: IEDB peptide-MHC binding, purified MHC/competitive/fluorescence; filed as Kd, often an IC50 or EC50 that approximates it; bounds were set here for any values at or beyond the usual limits of such assays
- test settings: source organism: Yersinia pestis KIM10+
reported endpoint: pKd
Here pKd is given on a logarithmic scale as minus log10 of the concentration in mol/L.

Req: Entry under review: `SRWAISHWL` . Reported pKd?
Resp: 6.69

----------
- assay target: HLA-B*58:01
- assay overview: IEDB peptide-MHC binding, purified MHC/competitive/fluorescence; filed as Kd, often an IC50 or EC50 that approximates it; bounds were set here for any values at or beyond the usual limits of such assays
- test settings: source organism: Entamoeba histolytica HM-1:IMSS
pKd: −log10 of the molar value.
reported endpoint: pKd

Req: Entry under review: `IESNPLFPV` . Reported pKd?
Resp: ≤ 5.30

----------
- assay target: HLA-A*02:19
- assay overview: IEDB peptide-MHC binding, purified MHC/competitive/fluorescence; filed as Kd, often an IC50 or EC50 that approximates it; bounds were set here for any values at or beyond the usual limits of such assays
- test settings: source organism: Vibrio parahaemolyticus K5030
reported endpoint: Kd (nM)
Give the number; nM is assumed, so skip it.

Req: Give HLA-A*02:19 Kd for `LQNFCQHLV`
Resp: 25.1

----------
- assay target: HLA-A*03:01
- assay overview: IEDB peptide-MHC binding, purified MHC/direct/fluorescence; filed as Kd, often an IC50 or EC50 that approximates it; bounds were set here for any values at or beyond the usual limits of such assays
- test settings: source organism: Campylobacter jejuni RM1221
reported endpoint: Kd

Req: Entry under review: `IYDYLRLLY` . Reported Kd?
Resp: ≥ 20 µM

----------
- assay target: HLA-A*03:01
- assay overview: IEDB peptide-MHC binding, purified MHC/direct/fluorescence; filed as Kd, often an IC50 or EC50 that approximates it; bounds were set here for any values at or beyond the usual limits of such assays
- test settings: source organism: Vibrio cholerae
reported endpoint: pKd
Here pKd is given on a logarithmic scale as minus log10 of the concentration in mol/L.

Req: Give HLA-A*03:01 pKd for `AADFPGIAR`
Resp: 6.00

Req: Please give the result for `KGHLPLLDK` too.
Resp: 7.26

----------
- assay target: HLA-A*29:02
- assay overview: IEDB peptide-MHC binding, purified MHC/competitive/fluorescence; filed as Kd, often an IC50 or EC50 that approximates it; bounds were set here for any values at or beyond the usual limits of such assays
- test settings: source organism: Mycobacterium tuberculosis variant bovis BCG str. Pasteur 1173P2
reported endpoint: Kd

Req: Entry under review: `HLTRVGPYL` . Reported Kd?
Resp: ≥ 20 µM

----------
- assay target: HLA-B*15:01
- assay overview: IEDB peptide-MHC binding, purified MHC/competitive/fluorescence; bounds were set here for any values at or beyond the usual limits of such assays
- test settings: source organism: Variola virus
reported endpoint: pIC50
Here pIC50 is given on a logarithmic scale as minus log10 of the concentration in mol/L.

Req: Entry under review: `FLPNPAFIH` . Reported pIC50?
Resp: 4.59

----------
- assay target: HLA-B*18:01
- assay overview: IEDB peptide-MHC binding, purified MHC/competitive/fluorescence; filed as Kd, often an IC50 or EC50 that approximates it; bounds were set here for any values at or beyond the usual limits of such assays
- test settings: source organism: Campylobacter jejuni subsp. jejuni NCTC 11168 = ATCC 700819
pKd: −log10 of the molar value.
reported endpoint: pKd

Req: Give HLA-B*18:01 pKd for `AVGFFPTGV`
Resp: ≤ 4.70
